target entity: rod opsin (Mus musculus)
Construct: expressed in transfected cells
Sequence (P15409 whole entry): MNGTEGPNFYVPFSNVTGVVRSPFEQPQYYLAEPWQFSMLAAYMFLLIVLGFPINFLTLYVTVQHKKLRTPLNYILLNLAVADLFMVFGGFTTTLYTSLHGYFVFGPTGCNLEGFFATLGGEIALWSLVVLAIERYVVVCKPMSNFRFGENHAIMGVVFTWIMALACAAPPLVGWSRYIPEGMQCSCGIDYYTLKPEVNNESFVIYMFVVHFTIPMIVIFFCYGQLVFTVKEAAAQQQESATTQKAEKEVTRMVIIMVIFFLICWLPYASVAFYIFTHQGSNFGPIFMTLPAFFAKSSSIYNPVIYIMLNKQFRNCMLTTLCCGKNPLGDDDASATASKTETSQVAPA
assay overview: cAMP quantification assay in NIH3T3-(WT-opsin/GFP) cells with forskolin
Assay type: cell-based
settings: 9-cis-retinal alone, under light; read-out: EC50, cAMP levels
property label: EC50 (nM)
The response must be a number in nM with no trailing unit.

Param readout= EC50; system= rod opsin (Mus musculus); entry= CC1=C(/C=C/C(C)=C\C=C\C(C)=C\C=O)C(C)(C)CCC1 [9-cis-retinal, reference compound] ; returns value.
75.7

----------
target entity: mouse P23H-opsin mutant (Mus musculus, UniProt P15409, P23H)
Sequence (P15409 whole entry P23H, the tested form may be a part): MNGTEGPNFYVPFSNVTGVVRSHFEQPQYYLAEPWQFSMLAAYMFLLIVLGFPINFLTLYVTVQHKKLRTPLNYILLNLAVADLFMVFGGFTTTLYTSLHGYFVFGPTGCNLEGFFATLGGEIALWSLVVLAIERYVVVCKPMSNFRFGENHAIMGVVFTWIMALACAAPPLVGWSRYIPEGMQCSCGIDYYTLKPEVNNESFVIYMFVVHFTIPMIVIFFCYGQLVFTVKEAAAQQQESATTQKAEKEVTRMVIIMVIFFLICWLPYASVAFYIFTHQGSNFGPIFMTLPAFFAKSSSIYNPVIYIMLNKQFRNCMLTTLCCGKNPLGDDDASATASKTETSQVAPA
assay overview: β-Gal fragment complementation assay: rescue of P23H opsin transport from ER to plasma membrane, U2OS(PLC-EA/P23H-PK) cells
Format: cell-based
settings: 24 h preincubation; activity standardized to 5 µM 9-cis-retinal as 100%; Hill fit; read-out: β-Gal fragment complementation assay Activity score (%) EC50
Threshold 9 µM: EC50 strictly smaller gives yes (1), otherwise no (0).

>>> classification("O=C(NCCCOc1cccc2cccnc12)c1cc(-c2ccccc2)on1")
"no (0)"

Read the next record carefully.
Regarding `O=C(NCCCn1cccc1)c1cc(-c2ccccc2)on1` , kindly confirm whether its EC50 is beneath 9 µM.
yes (1)
